Where these numbers come from: PubChem BioAssay (NCI)

- Tested on: MDA-MB-231 breast
- Protocol Text: NCI-60 one-dose screen, 48 h (100 = growth as untreated, 0 = no growth, -100 = all killed)
- Run Parameters: 10 µM unless noted
- Method: Cells are grown in 96 well plates and exposed to the test compound for 48 hours. Compounds are tested at a single concentration, which is 10^-5 M for most compounds. The reported endpoint is percent growth (GI% or GIPRCNT), where numbers from 0 - 100% represent growth inhibition, and numbers from -100% - 0 represent cell death. For example, a value of 40 represents 60% growth inhibition. A value of 0 means no net growth occurred over the course of the experiment. […]
This is part of a sample that, as a whole, favours compounds with a hit. Of some 83,000 tested, about 20% had one in any assay.
Lab note: compare growth against 10%. Equal or greater, write Satisfied. Smaller, write Not satisfied.

Compound: N#Cc1c(Cl)nc(SCC2CO2)nc1-c1ccccc1 (stereo not given)
Label Value: Satisfied
//
Compound: COc1ccc2c(c1)C(C)Cc1c(ncnc1-n1cnc3ccccc31)N2C (stereo not given)
Label Value: Satisfied
//
Compound: N#CCCc1c[nH]c2ccccc12
Label Value: Satisfied
//
Compound: Cc1cccc(C[C@H](NC(=O)Nc2ccc(Cl)cc2F)C(=O)N[C@@H]2C(=O)N3C[C@H](O)C[C@H]3C(=O)N3CCCC[C@H]3C(=O)N[C@@H](C)C(=O)N3C[C@H](C)C[C@H]3C(=O)O[C@H]2C)c1
Label Value: Not satisfied
//
Compound: CCCCNC(=O)NS(=O)(=O)Cc1ccccc1
Label Value: Satisfied

###

- System: HCT-116 colon
- Protocol Text: NCI-60 one-dose screen, 48 h (100 = growth as untreated, 0 = no growth, -100 = all killed)
- Run Parameters: 10 µM unless noted
- Procedure: Growth inhibition of the HCT-116 human tumor cell line is measured as a screen for anti-cancer activity. Cells are grown in 96 well plates and exposed to the test compound for 48 hours. Compounds are tested at a single concentration, which is 10^-5 M for most compounds. The reported endpoint is percent growth (GI% or GIPRCNT), where numbers from 0 - 100% represent growth inhibition, and numbers from -100% - 0 represent cell death. For example, a value of 40 represents 60% growth inhibition. […]
Compounds without any hit were thinned out: in the full panel of roughly 83,000, 20% have a hit. Active and inactive are the calls of the source. The calls were made as follows: active = growth percent below 10; inactive = the rest.
Listing of recorded growth by entry.

Entry Smiles: O=C(Oc1ccc(Cl)cc1[N+](=O)[O-])Oc1ccc(Cl)cc1[N+](=O)[O-]
growth: 113% (inactive)
--
Entry Smiles: O=S(=O)(c1ccc(N/N=C\c2ccccc2Cl)cc1)c1ccc(N/N=C/c2ccccc2Cl)cc1
growth: 80.8% (inactive)
--
Entry Smiles: O=C(CCCSc1nc(-c2ccccc2)cc(-c2ccccc2)n1)NO
growth: 9.52% (active)
--
Entry Smiles: O=C(N/N=C1\c2ccccc2-c2cccc(C(=O)O)c21)c1ccc(O)cc1
growth: 99.4% (inactive)
--
Entry Smiles: O=c1[nH]c2cc(Cl)c(Cl)cc2n2cc3ncccc3c12
growth: 71.1% (inactive)
--
Entry Smiles: O=[N+]([O-])c1cccc(N=NNc2cccc([N+](=O)[O-])c2)c1
growth: 114% (inactive)
--
Entry Smiles: CC(C)=CC/C=C(/C)[C@H]1CC[C@]2(C)[C@@H]1CC[C@@H]1[C@@]3(C)CCC(=O)NC(C)(C)[C@@H]3CC[C@]12C
growth: -37.4% [100 µM] (active)
--
Entry Smiles: CCCCOC(=O)c1c(C)[nH]c(/C=C2\N=C(c3ccc[nH]3)C=C2OC)c1C
growth: -76.1% (active)
--
Entry Smiles: COc1cc(C)cc2oc3oc(=O)c(C(=O)c4cc5cc(Br)ccc5o4)cc3c(=O)c12
growth: 99.7% (inactive)
--
Entry Smiles: CCN(CC)CCS(=O)(=O)CCNc1ccnc2cc(Cl)ccc12
growth: 6.59% (active)
